tested on: SNB-75 CNS; test: NCI-60 one-dose screen, 48 h (100 = growth as untreated, 0 = no growth, -100 = all killed); settings: 10 µM unless noted
This is part of a sample that, as a whole, favours compounds with a hit. Of some 83,000 tested, about 20% had one in any assay.
Threshold check on growth: strictly below 70% is yes (1); on or above 70% is no (0).

Find out if reported growth for `COc1cnc2c(c1)C(=O)c1c-2n(CCCN2CCN(C)CC2)c(=O)c2cc([N+](=O)[O-])ccc12` is less than 70%
yes (1)

Find out if reported growth for `CCCCNP1(NCCCC)=NP(NCCCC)(NCCCC)=NP(NCCCC)(NCCCC)=NP(NCCCC)(NCCCC)=N1` is less than 70%
yes (1)

Find out if reported growth for `O=C(Nc1ccc(Nc2cc(Nc3ccccc3)ncn2)cc1)Nc1cc(C(F)(F)F)ccc1F` is less than 70%
yes (1)

Find out if reported growth for COc1ccc(N(Cc2cc(OC)c(OC)c(OC)c2)C2OC(=O)c3ccccc32)cc1 (centres undefined) is less than 70%
yes (1)

Find out if reported growth for `O=C1C(=O)N(CCCCn2cc(CO)nn2)c2ccccc21` is less than 70%
no (0)

Find out if reported growth for `c1ccc2c(Nc3cccc4ccccc34)cccc2c1` is less than 70%
yes (1)

Find out if reported growth for O=C1C2CC=CCC2C(=O)N1CNc1ccc(Cl)cc1 (centres undefined) is less than 70%
no (0)

Find out if reported growth for `CCN(C(=O)CN1CCN(c2cc3c(cc2F)c(=O)c(C(=O)O)cn3CC)CC1)c1nc(-c2ccccc2)cs1` is less than 70%
yes (1)

Find out if reported growth for `O=C(O)c1ccc2c(c1Sc1ccccc1)C(=O)c1ccccc1C2=O` is less than 70%
no (0)

Find out if reported growth for C=C1CC[C@@H]2[C@](C)(COC(C)=O)[C@H](OC(C)=O)CC[C@@]2(C)[C@@H]1CC(Nc1ccc(S(=O)(=O)Nc2nc(C)cc(C)n2)cc1)C1=CCOC1=O (some centres undefined) is less than 70%
yes (1)

Find out if reported growth for `COc1cc(NCCCCN=C(N)N)c2ncccc2c1` is less than 70%
yes (1)

Find out if reported growth for `C[C@H](CCC(=O)O)[C@H]1CC[C@H]2[C@@H]3CC[C@@H]4/C(=C\c5ccco5)C(=O)/C(=C\c5ccco5)C[C@]4(C)[C@H]3CC[C@]12C` is less than 70%
no (0)

Find out if reported growth for `COc1cc2c(cc1O)CCc1cc(O)cc(OC)c1-2` is less than 70%
no (0)

Find out if reported growth for `CS(=O)(=O)c1ccc(-c2cnc3ccc(-c4cccc(S(C)(=O)=O)c4)nn23)cc1` is less than 70%
yes (1)

Find out if reported growth for `Cc1nc2nc(N)nc(N)c2nc1C` is less than 70%
no (0)

Find out if reported growth for CCC(c1ccc(O)cc1)C(CC)c1ccc(O)c(F)c1 (centres undefined) is less than 70%
no (0)

Find out if reported growth for `Cc1ccc(/C=C2\Oc3cc(OCC(=O)c4ccc(Cl)cc4)ccc3C2=O)cc1` is less than 70%
no (0)

Find out if reported growth for `CC/C(Cc1ccccc1)=C(/c1ccc(O)cc1)c1ccc(OCCN2CCCC2)cc1` is less than 70%
yes (1)

Find out if reported growth for `CCN(CC)CC(C)(C)C(=O)/C=C/c1ccccc1` is less than 70%
no (0)

Find out if reported growth for `O=[N+]([O-])c1c(F)cccc1Nc1cccc(F)c1` is less than 70%
no (0)

Find out if reported growth for CC1(C)CC(C(=O)OCCCCCCCCCCC[P+](c2ccccc2)(c2ccccc2)c2ccccc2)C(C)(C)N1O (centres undefined) is less than 70%
yes (1)

Find out if reported growth for CCN(CC)CC(C)Nc1ccc([N+](=O)[O-])c2sc3ccccc3c(=O)c12 (centres undefined) is less than 70%
yes (1)

Find out if reported growth for `Nc1cc2ccncc2c2ccccc12` is less than 70%
no (0)

Find out if reported growth for Nc1nc2c(c3ncccc13)C(c1cccc(Br)c1)Cc1ncccc1-2 (centres undefined) is less than 70%
yes (1)

Find out if reported growth for `O=C(/C=C/c1ccc(Cl)cc1)c1ccc(O)c(CN2CCN(c3cc4c(cc3F)c(=O)c(C(=O)O)cn4C3CC3)CC2)c1` is less than 70%
yes (1)

Find out if reported growth for `CCOC(=O)C(=Cc1ccccc1F)C(=O)OCC` is less than 70%
no (0)

Find out if reported growth for `Cc1ccc(S(=O)(=O)N(CCc2ccc(Cl)cc2)S(=O)(=O)c2ccc(C)cc2)cc1` is less than 70%
yes (1)

Find out if reported growth for `Cc1cc(Cl)ccc1Nc1nc(C(F)(F)F)ccc1C(=O)N/N=C/c1ccc(F)cc1` is less than 70%
yes (1)

Find out if reported growth for `Cc1sc2nc3[nH]/c(=C\c4ccc(Cl)cc4)c(=O)n3c(=O)c2c1C` is less than 70%
no (0)

Find out if reported growth for `O=C(N/N=C/c1ccc(O)cc1O)c1cccnc1` is less than 70%
yes (1)

Find out if reported growth for `CCN(CC)CCCCNc1ccc(NCCCCN(CC)CC)c2c1C(=O)c1ccccc1C2=O` is less than 70%
no (0)

Find out if reported growth for `Cc1cc(Nc2nc(N3CCN(C)CC3)nc3ccccc23)n[nH]1` is less than 70%
yes (1)

Find out if reported growth for `COc1ncc(-c2ccc3ncnc(Nc4cccc(Cl)c4)c3c2)cc1NS(C)(=O)=O` is less than 70%
yes (1)

Find out if reported growth for `CCCCCCCCOC(=O)CC[C@@H](C)[C@H]1CC[C@H]2[C@@H]3[C@H](OC(=O)CCN)C[C@@H]4C[C@H](OC(=O)CCN)CC[C@]4(C)[C@H]3C[C@H](OC(=O)CCN)[C@]12C` is less than 70%
yes (1)

Find out if reported growth for `CCCCCCCCCCCCCCCCNCCC[C@@H](C)[C@H]1CC[C@H]2[C@@H]3[C@H](OCCCN)C[C@@H]4C[C@H](OCCCN)CC[C@]4(C)[C@H]3C[C@H](OCCCN)[C@]12C` is less than 70%
yes (1)

Find out if reported growth for `COc1cc2nc3cc([N+](=O)[O-])ccc3c(NCCCNCC(C)(C)O)c2cc1OC` is less than 70%
yes (1)

Find out if reported growth for `CCCCNc1ccc2c3c1cccc3c(=O)n1c3ccccc3nc21` is less than 70%
no (0)
